- target.system: TRPM8 (Homo sapiens, UniProt Q7Z2W7)
- Construct: expressed in transfected cells
- Sequence (Q7Z2W7 whole entry): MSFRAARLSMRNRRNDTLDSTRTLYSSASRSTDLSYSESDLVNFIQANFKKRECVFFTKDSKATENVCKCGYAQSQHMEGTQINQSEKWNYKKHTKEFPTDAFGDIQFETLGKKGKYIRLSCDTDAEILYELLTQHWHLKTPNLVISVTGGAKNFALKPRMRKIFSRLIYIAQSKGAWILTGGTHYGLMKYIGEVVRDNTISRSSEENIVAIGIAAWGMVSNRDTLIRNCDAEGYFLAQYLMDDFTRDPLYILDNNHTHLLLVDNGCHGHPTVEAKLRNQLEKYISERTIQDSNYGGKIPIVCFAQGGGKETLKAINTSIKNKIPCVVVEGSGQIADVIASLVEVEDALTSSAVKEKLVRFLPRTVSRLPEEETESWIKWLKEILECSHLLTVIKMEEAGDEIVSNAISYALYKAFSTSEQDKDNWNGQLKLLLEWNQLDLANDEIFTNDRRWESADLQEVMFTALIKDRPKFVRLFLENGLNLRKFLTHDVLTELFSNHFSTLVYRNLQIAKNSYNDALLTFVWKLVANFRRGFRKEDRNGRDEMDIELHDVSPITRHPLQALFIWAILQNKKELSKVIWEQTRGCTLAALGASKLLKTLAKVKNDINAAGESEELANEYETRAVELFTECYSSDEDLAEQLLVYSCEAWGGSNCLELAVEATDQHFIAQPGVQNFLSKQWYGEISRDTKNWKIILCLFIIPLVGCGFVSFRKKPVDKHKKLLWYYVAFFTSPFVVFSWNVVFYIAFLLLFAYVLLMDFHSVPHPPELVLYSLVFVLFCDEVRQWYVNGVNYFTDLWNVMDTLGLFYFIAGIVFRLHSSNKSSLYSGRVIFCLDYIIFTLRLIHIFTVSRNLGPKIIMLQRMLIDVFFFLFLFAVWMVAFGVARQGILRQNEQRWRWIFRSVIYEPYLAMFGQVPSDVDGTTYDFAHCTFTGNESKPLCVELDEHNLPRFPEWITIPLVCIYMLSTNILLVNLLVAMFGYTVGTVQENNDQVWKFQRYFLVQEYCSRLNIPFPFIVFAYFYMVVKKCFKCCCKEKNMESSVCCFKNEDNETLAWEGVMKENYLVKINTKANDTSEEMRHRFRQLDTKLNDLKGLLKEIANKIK
- assay.notes: Ca2+ fluorimetry assay in CHO cell line stably expressing TRPM8
- Format: cell-based
- measurement.conditions: 10 μM; CHO cells stably expressing TRPM8; Fluo-4NW fluorescence
measured.endpoint: activation at 10 µM (%)

Q. Look up and report measured activation at 10 µM for this entry: COc1cccc(-c2cn([C@@H]3C[C@H](C)CC[C@H]3C(C)C)nn2)c1 [TZM-24]
A. 37.8

Q. Look up and report measured activation at 10 µM for this entry: CC(C)[C@@H]1CC[C@@H](C)C[C@H]1n1cc(-c2cccc(O)c2)nn1 [TZM-23]
A. 51.2

Q. Look up and report measured activation at 10 µM for this entry: CC(C)[C@@H]1CC[C@@H](C)C[C@H]1n1cc(C(=O)c2ccc(-c3ccccc3)cc2)nn1 [TZM-17]
A. 42

Q. Look up and report measured activation at 10 µM for this entry: COc1ccc(C(O)c2cn([C@@H]3C[C@H](C)CC[C@H]3C(C)C)nn2)cc1OC (stereo partly shown) [TZM-26]
A. 50.9

====

- target.system: TRPM8 (Homo sapiens, UniProt Q7Z2W7)
- Construct: expressed in transfected cells
- assay.notes: Ca2+ fluorimetry assay in CHO cell line stably expressing TRPM8
- Format: cell-based
- measurement.conditions: 10 μM; CHO cells stably expressing TRPM8; Fluo-4NW fluorescence
measured.endpoint: activation at 10 µM (%)

Worked cases, answers included:
Q. Look up and report measured activation at 10 µM for this entry: `CC(C)[C@@H]1CC[C@@H](C)C[C@H]1n1cc(-c2ccccn2)nn1`
A. 59.1

Q. Look up and report measured activation at 10 µM for this entry: `COCc1cn([C@@H]2C[C@H](C)CC[C@H]2C(C)C)nn1`
A. 45.1

Q. Look up and report measured activation at 10 µM for this entry: `COc1ccc(C(=O)c2cn([C@@H]3C[C@H](C)CC[C@H]3C(C)C)nn2)cc1`
A. 44.6

1 = COc1ccc(-c2cn([C@@H]3C[C@H](C)CC[C@H]3C(C)C)nn2)cc1
2 = CC(C)[C@@H]1CC[C@@H](C)C[C@H]1n1cc(CCc2ccccc2)nn1
Q. Param pair: 1 , 2 . Output: the one whose activation at 10 µM is numerically greater. Selection: enter the item's label.
A. 1

====

- target.system: TRPM8 (Homo sapiens)
- assay.notes: Ca2+ fluorimetry assay in CHO cell line stably expressing TRPM8
- measurement.conditions: CHO cells stably expressing TRPM8; concentrations 0.1, 1, 10 and 100 μM; sigmoid fit
measured.endpoint: EC50 (µM)

Worked cases, answers included:
Q. Look up and report measured EC50 for this entry: COc1ccc(-c2cn([C@@H]3C[C@H](C)CC[C@H]3C(C)C)nn2)cc1 [TZM-4]
A. 3.47

Q. Look up and report measured EC50 for this entry: COc1ccc(C(=O)c2cn([C@@H]3C[C@H](C)CC[C@H]3C(C)C)nn2)cc1OC [TZM-11]
A. 9.84

Q. Look up and report measured EC50 for this entry: COc1cc(OC)cc(-c2cn([C@@H]3C[C@H](C)CC[C@H]3C(C)C)nn2)c1 [TZM-7]
A. 2.91

1 = CC(C)[C@@H]1CC[C@@H](C)C[C@H]1n1cc(CCc2ccccc2)nn1 [TZM-10]
2 = CC(C)[C@@H]1CC[C@@H](C)C[C@H]1n1cc(-c2ccccn2)nn1 [TZM-9]
Q. Of the pair 1 and 2 , name the member with the lesser recorded EC50. Selection: enter the item's label.
A. 1

====

- target.system: TRPM8 (Homo sapiens, UniProt Q7Z2W7)
- Construct: expressed in transfected cells
- assay.notes: Ca2+ fluorimetry assay in CHO cell line stably expressing TRPM8
- Type: cell-based
- measurement.conditions: 10 μM; CHO cells stably expressing TRPM8; Fluo-4NW fluorescence
measured.endpoint: activation at 10 µM (%)

Worked cases, answers included:
Q. Look up and report measured activation at 10 µM for this entry: `COc1cccc(C(=O)c2cn([C@@H]3C[C@H](C)CC[C@H]3C(C)C)nn2)c1`
A. 40.8

Q. Look up and report measured activation at 10 µM for this entry: `COc1ccc(C(=O)c2cn([C@@H]3C[C@H](C)CC[C@H]3C(C)C)nn2)cc1OC`
A. 53.5

Q. Look up and report measured activation at 10 µM for this entry: CC1CC[C@@H](C(C)C)[C@H](n2cc(CCCCCCCCC(=O)O)nn2)C1 (stereo in doubt)
A. 54

Q. Look up and report measured activation at 10 µM for this entry: `CC(C)[C@@H]1CC[C@@H](C)C[C@H]1n1cc(C2(O)CCCCC2)nn1`
A. 45.1

Q. Look up and report measured activation at 10 µM for this entry: `CC(C)[C@@H]1CC[C@@H](C)C[C@H]1n1cc(C(=O)c2cccc(F)c2)nn1`
A. 57.9

Q. Look up and report measured activation at 10 µM for this entry: `CC(C)[C@@H]1CC[C@@H](C)C[C@H]1n1cc(-c2ccccc2)nn1`
A. 51.6

I = CC(C)[C@@H]1CC[C@@H](C)C[C@H]1n1cc(C(=O)c2ccc(Oc3ccccc3)cc2)nn1
II = COc1cc(OC)cc(-c2cn([C@@H]3C[C@H](C)CC[C@H]3C(C)C)nn2)c1
Q. Param pair: I , II . Output: the one whose activation at 10 µM is numerically greater. Selection: enter the item's label.
A. II

====

- target.system: TRPM8 (Homo sapiens)
- Construct: expressed in transfected cells
- assay.notes: Ca2+ fluorimetry assay in CHO cell line stably expressing TRPM8
- Assay type: cell-based
- measurement.conditions: 10 μM; CHO cells stably expressing TRPM8; Fluo-4NW fluorescence
measured.endpoint: activation at 10 µM (%)
State the answer as a number, implicitly in %.

Worked cases, answers included:
Q. Provide the reported activation at 10 µM (system: TRPM8 (Homo sapiens)) for CC(C)[C@@H]1CC[C@@H](C)C[C@H]1n1cc(-c2cccc3ccccc23)nn1 [TZM-8]
A. 56.5

Q. Provide the reported activation at 10 µM (system: TRPM8 (Homo sapiens)) for COc1cc(OC)cc(C(=O)c2cn([C@@H]3C[C@H](C)CC[C@H]3C(C)C)nn2)c1 [TZM-16]
A. 44.5

Q. Provide the reported activation at 10 µM (system: TRPM8 (Homo sapiens)) for COc1ccccc1C(=O)c1cn([C@@H]2C[C@H](C)CC[C@H]2C(C)C)nn1 [TZM-15]
A. 50.5

Let's switch to this molecule now.
Q. Provide the reported activation at 10 µM (system: TRPM8 (Homo sapiens)) for CC(C)[C@@H]1CC[C@@H](C)C[C@H]1n1cc(C(=O)c2ccc(Cl)cc2)nn1 [TZM-20]
A. 66.9

====

- target.system: TRPM8 (Homo sapiens, UniProt Q7Z2W7)
- Construct: expressed in transfected cells
- assay.notes: Ca2+ fluorimetry assay in CHO cell line stably expressing TRPM8
- Format: cell-based
- measurement.conditions: 10 μM; CHO cells stably expressing TRPM8; Fluo-4NW fluorescence
- Description: The cells were cultured in monolayer in EMEM medium (Earle's minimum essential medium with Earle's salts, Invitrogen) supplemented with 10% foetal bovine serum (FBS), 2 mM L-glutamine, 1% penicillin-streptomycin solution and […] of the Geneticin antibiotic (Sigma) and kept at 37° C. in a humidified atmosphere with 5% of CO2. Ca^2+ fluorimetry assays were carried out in order to determine the efficacy of the compounds on the TRPM8 channels. […]
measured.endpoint: activation at 10 µM (%)

Q. Look up and report measured activation at 10 µM for this entry: `CC(C)[C@@H]1CC[C@@H](C)C[C@H]1n1cc(-c2ccc(-c3ccccc3)cc2)nn1`
A. 50.1

Q. Look up and report measured activation at 10 µM for this entry: `CC(C)[C@@H]1CC[C@@H](C)C[C@H]1n1cc(CO)nn1`
A. 45.5

Q. Look up and report measured activation at 10 µM for this entry: CC1CCC(C(C)C)C(O)C1 (stereo not drawn) [Menthol, reference compound]
A. 101

Q. Look up and report measured activation at 10 µM for this entry: CC1CC[C@@H](C(C)C)[C@H](n2cc(CCCCC#N)nn2)C1 (stereo in doubt)
A. 57.3

Q. Look up and report measured activation at 10 µM for this entry: `CC(C)[C@@H]1CC[C@@H](C)C[C@H]1n1cc(-c2ccc(Oc3ccccc3)cc2)nn1`
A. 55.6

Q. Look up and report measured activation at 10 µM for this entry: `COc1ccc(C(=O)c2cn([C@@H]3C[C@H](C)CC[C@H]3C(C)C)nn2)c(OC)c1`
A. 43.8
